study.system: UniProt P13945
Sequence (P13945 whole entry, looked up): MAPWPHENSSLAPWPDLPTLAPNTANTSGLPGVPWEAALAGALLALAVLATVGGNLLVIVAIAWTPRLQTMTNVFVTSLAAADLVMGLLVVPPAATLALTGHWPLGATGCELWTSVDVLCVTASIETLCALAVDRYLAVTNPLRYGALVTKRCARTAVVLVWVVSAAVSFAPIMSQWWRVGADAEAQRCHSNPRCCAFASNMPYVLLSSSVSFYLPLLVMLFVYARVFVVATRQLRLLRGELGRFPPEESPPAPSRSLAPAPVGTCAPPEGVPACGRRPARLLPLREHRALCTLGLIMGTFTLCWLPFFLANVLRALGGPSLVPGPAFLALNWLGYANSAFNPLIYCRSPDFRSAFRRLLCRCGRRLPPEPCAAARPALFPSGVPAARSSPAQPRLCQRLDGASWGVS
measurement.notes: Displacement of [125I]iodocyanopindolol from human adrenergic beta-3 receptor at 10 uM
Field: inhibition. Provide a value for each of the compounds that follow.
Give bare numbers, in %.

[
  {
    "compound": "CC1CN(c2ccc(Cl)cc2)CCN1CC(O)COc1ccc2c(c1)CCCN2Cc1ccccc1 (stereo not drawn)",
    "unit.tag": "%",
    "inhibition": 0.08
  },
  {
    "compound": "COc1ccc(N2CCN(CC(O)COc3ccc4c(c3)CCCN4Cc3ccccc3)CC2)cc1 (stereo not drawn)",
    "unit.tag": "%",
    "inhibition": 49.8
  }
]

Input line: Request the reported inhibition associated with COc1ccccc1N1CCN(CC(O)COc2ccc3c(c2)CCCN3Cc2ccccc2)CC1 (stereo not drawn)
Output line: 14.5
